Target: T1, Human CD3eg linker (human)
T1 construct: Single-chain construct; also called recombinant human CD3
T1 chain: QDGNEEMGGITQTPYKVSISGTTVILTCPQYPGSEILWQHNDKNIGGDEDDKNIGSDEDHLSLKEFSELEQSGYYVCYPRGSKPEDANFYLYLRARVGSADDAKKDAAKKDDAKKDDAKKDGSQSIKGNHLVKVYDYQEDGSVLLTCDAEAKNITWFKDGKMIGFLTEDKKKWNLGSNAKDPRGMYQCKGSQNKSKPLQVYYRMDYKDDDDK
Experiment: SPR; fold vs parent H183/L072
Readings of fold change of affinity for the listed binders

[
  {
    "binder": "H183/L072 VL T97L (antibody, name in Kabat numbering, V domains shown) VH: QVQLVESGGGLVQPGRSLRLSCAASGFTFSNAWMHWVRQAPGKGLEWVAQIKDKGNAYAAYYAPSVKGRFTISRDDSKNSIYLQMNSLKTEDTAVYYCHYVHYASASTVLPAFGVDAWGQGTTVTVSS VL: DIVMTQSPLSLPVTPGEPASISCQASQELVHMNRNTYLHWYQQKPGQAPRLLIYKVSNRFPGVPDRFSGSGSGTDFTLKISRVEAEDVGVYYCAQGTSVPFLFGQGTKLEIK",
    "fold change of affinity, fold": 0.4
  },
  {
    "binder": "H183/L072 VL V94D (antibody, name in Kabat numbering, V domains shown) VH: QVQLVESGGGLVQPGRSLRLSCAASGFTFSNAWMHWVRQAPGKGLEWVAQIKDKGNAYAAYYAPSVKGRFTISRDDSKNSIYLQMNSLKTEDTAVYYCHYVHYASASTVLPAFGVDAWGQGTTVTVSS VL: DIVMTQSPLSLPVTPGEPASISCQASQELVHMNRNTYLHWYQQKPGQAPRLLIYKVSNRFPGVPDRFSGSGSGTDFTLKISRVEAEDVGVYYCAQGTSDPFTFGQGTKLEIK",
    "fold change of affinity, fold": 0.5
  },
  {
    "binder": "H183/L072 VL S26E (antibody, name in Kabat numbering, V domains shown) VH: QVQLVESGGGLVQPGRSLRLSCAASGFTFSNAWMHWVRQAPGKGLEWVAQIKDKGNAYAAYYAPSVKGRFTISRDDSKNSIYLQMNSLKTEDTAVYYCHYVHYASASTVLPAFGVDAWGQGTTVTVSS VL: DIVMTQSPLSLPVTPGEPASISCQAEQELVHMNRNTYLHWYQQKPGQAPRLLIYKVSNRFPGVPDRFSGSGSGTDFTLKISRVEAEDVGVYYCAQGTSVPFTFGQGTKLEIK",
    "fold change of affinity, fold": 0.7
  },
  {
    "binder": "H183/L072 VL S26K (antibody, name in Kabat numbering, V domains shown) VH: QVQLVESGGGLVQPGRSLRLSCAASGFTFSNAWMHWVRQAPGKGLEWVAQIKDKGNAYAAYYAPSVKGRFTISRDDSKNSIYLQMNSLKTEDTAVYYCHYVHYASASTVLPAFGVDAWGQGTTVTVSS VL: DIVMTQSPLSLPVTPGEPASISCQAKQELVHMNRNTYLHWYQQKPGQAPRLLIYKVSNRFPGVPDRFSGSGSGTDFTLKISRVEAEDVGVYYCAQGTSVPFTFGQGTKLEIK",
    "fold change of affinity, fold": 0.7
  },
  {
    "binder": "H183/L072 VL M27eL (antibody, name in Kabat numbering, V domains shown) VH: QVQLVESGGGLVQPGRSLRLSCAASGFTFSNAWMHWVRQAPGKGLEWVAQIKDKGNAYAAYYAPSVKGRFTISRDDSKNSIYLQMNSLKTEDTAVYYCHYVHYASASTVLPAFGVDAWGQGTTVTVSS VL: DIVMTQSPLSLPVTPGEPASISCQASQELVHLNRNTYLHWYQQKPGQAPRLLIYKVSNRFPGVPDRFSGSGSGTDFTLKISRVEAEDVGVYYCAQGTSVPFTFGQGTKLEIK",
    "fold change of affinity, fold": 1
  },
  {
    "binder": "H183/L072 VL Q27W (antibody, name in Kabat numbering, V domains shown) VH: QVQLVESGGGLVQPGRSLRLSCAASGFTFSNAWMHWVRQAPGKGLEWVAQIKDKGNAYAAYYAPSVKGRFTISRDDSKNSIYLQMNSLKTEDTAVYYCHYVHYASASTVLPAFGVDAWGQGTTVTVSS VL: DIVMTQSPLSLPVTPGEPASISCQASWELVHMNRNTYLHWYQQKPGQAPRLLIYKVSNRFPGVPDRFSGSGSGTDFTLKISRVEAEDVGVYYCAQGTSVPFTFGQGTKLEIK",
    "fold change of affinity, fold": 0.7
  },
  {
    "binder": "H183/L072 VL R54D (antibody, name in Kabat numbering, V domains shown) VH: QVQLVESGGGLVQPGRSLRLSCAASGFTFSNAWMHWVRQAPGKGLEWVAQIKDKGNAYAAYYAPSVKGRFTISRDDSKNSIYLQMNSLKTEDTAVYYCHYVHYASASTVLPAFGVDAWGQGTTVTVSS VL: DIVMTQSPLSLPVTPGEPASISCQASQELVHMNRNTYLHWYQQKPGQAPRLLIYKVSNDFPGVPDRFSGSGSGTDFTLKISRVEAEDVGVYYCAQGTSVPFTFGQGTKLEIK",
    "fold change of affinity, fold": 0.5
  },
  {
    "binder": "H183/L072 VL R54T (antibody, name in Kabat numbering, V domains shown) VH: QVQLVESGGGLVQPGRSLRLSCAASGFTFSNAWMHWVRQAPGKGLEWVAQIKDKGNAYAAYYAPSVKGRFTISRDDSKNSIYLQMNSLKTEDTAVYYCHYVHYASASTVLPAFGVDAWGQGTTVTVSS VL: DIVMTQSPLSLPVTPGEPASISCQASQELVHMNRNTYLHWYQQKPGQAPRLLIYKVSNTFPGVPDRFSGSGSGTDFTLKISRVEAEDVGVYYCAQGTSVPFTFGQGTKLEIK",
    "fold change of affinity, fold": 0.8
  },
  {
    "binder": "H183/L072 VL F55H (antibody, name in Kabat numbering, V domains shown) VH: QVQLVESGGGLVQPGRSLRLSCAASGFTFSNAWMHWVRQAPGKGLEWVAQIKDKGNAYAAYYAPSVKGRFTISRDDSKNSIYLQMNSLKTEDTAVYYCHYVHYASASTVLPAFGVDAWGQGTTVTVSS VL: DIVMTQSPLSLPVTPGEPASISCQASQELVHMNRNTYLHWYQQKPGQAPRLLIYKVSNRHPGVPDRFSGSGSGTDFTLKISRVEAEDVGVYYCAQGTSVPFTFGQGTKLEIK",
    "fold change of affinity, fold": 7.4
  },
  {
    "binder": "H183/L072 VL R54Q (antibody, name in Kabat numbering, V domains shown) VH: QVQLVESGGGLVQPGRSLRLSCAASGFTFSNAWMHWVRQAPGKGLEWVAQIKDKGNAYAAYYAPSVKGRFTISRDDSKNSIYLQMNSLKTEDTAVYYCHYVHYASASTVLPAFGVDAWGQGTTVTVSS VL: DIVMTQSPLSLPVTPGEPASISCQASQELVHMNRNTYLHWYQQKPGQAPRLLIYKVSNQFPGVPDRFSGSGSGTDFTLKISRVEAEDVGVYYCAQGTSVPFTFGQGTKLEIK",
    "fold change of affinity, fold": 1.2
  }
]
